Form field: MIC90 (one value per entry).
# System: Yersinia pestis
# assayExplanation: microbe, parasite or virus in culture
# Assay type: cell-based
valueKind: MIC90 (µg/mL)

[[record]]
compound = "CCCN1[C@H](CCNC(C)=N)CCC[C@H]1c1ccc(-n2cc3cc(-c4cc(CCC[C@H](C)N)cc(Cl)c4F)[nH]c3nc2=O)cc1"
valuekind = "MIC90"
val = 0.25

[[record]]
compound = "CC(=N)NCC[C@@H]1CCC[C@@H](c2ccc(-n3cc4cc(-c5cc(CCC[C@H](C)N)cc(Cl)c5F)[nH]c4nc3=O)cc2C)N1"
valuekind = "MIC90"
val = 0.5

[[record]]
compound = "CC(=N)NCC[C@@H]1CSC[C@@H](c2ccc(-n3cc4cc(-c5cc(CCC[C@H](C)N)cc(Cl)c5F)[nH]c4nc3=O)cc2)N1"
valuekind = "MIC90"
val = 0.25

[[record]]
compound = "C[C@H](N)CCCc1cc(Cl)c(F)c(-c2cc3cn(-c4ccc([C@@H]5CCC[C@@H](CCSC(=N)N)N5)cc4)c(=O)nc3[nH]2)c1"
valuekind = "MIC90"
val = 0.25

[[record]]
compound = "C[C@H](N)CCCc1cc(Cl)c(F)c(-c2cc3cn(-c4ccc([C@H]5CC[C@H](CCNC(=N)N)N5)cc4)c(=O)nc3[nH]2)c1"
valuekind = "MIC90"
val = 0.25

[[record]]
compound = "CC(=N)NCC[C@@H]1CCC[C@@H](c2ccc(-n3cc4cc(-c5cc(CCC[C@H](C)N)cc(Cl)c5F)[nH]c4nc3=O)cc2)N1CCCF"
valuekind = "MIC90"
val = 0.25

[[record]]
compound = "C[C@H](N)CCCc1cc(Cl)c(F)c(-c2cc3cn(-c4ccc([C@@H]5CCC[C@@H](CCSC(=N)N)N5)c(F)c4)c(=O)nc3[nH]2)c1"
valuekind = "MIC90"
val = 0.25

[[record]]
compound = "CC(=N)NCC[C@@H]1CCC[C@@H](c2ccc(-n3cc4cc(-c5cc(CCC[C@H](C)N)cc(Cl)c5F)[nH]c4nc3=O)cc2)N1CCCO [RX-D2]"
valuekind = "MIC90"
val = 1

[[record]]
compound = "CSc1cc(-n2cc3cc(-c4cc(CCC[C@@H](N)C5CC5)cc(Cl)c4F)[nH]c3nc2=O)ccc1[C@@H]1CCC[C@@H](CCNC(C)=N)N1 [RX-D1]"
valuekind = "MIC90"
val = 0.25

[[record]]
compound = "C=C[C@H](N)CCCc1cc(Cl)c(F)c(-c2cc3cn(-c4ccc([C@@H]5CCC[C@@H](CCNC(C)=N)N5)c(SC)c4)c(=O)nc3[nH]2)c1"
valuekind = "MIC90"
val = 0.5

[[record]]
compound = "C[C@H](N)CCCc1cc(Cl)c(F)c(-c2cc3cn(-c4ccc([C@@H]5CCC[C@@H](CCNC(=N)CN)N5)cc4)c(=O)nc3[nH]2)c1"
valuekind = "MIC90"
val = 1

[[record]]
compound = "C=CCN1[C@H](CCNC(C)=N)CCC[C@H]1c1ccc(-n2cc3cc(-c4cc(CCC[C@H](C)N)cc(Cl)c4F)[nH]c3nc2=O)cc1"
valuekind = "MIC90"
val = 0.5

